Test system: HCT-116 colon
Assay: NCI tumour cell line growth inhibition, 48 h
metric: GI50

Observe how each entry below is paired with its result.
compound: COc1ncc(-c2nc3c(n2C(C)C)[C@H](c2ccc(Cl)cc2)N(c2cc(Cl)cn(C)c2=O)C3=O)c(OC)n1
measured.target: HCT-116 colon
GI50: 22 µM

compound: CC(=O)OCC1OC(OC2CC3C(C)(C)C(OC(C)=O)CC[C@]3(C)C3CCC45CC4(CC[C@H]5C(C)CC(O)C4OC4(C)C)[C@]23C)C(O)C(O)C1O (some centres undefined)
measured.target: HCT-116 colon
GI50: 2.14 µM

compound: C=C(CNCCc1ccc(O)cc1)[C@@H]1CC[C@]2(CO)CC[C@]3(C)[C@H](CC[C@@H]4[C@@]5(C)CCC(=O)C(C)(C)[C@@H]5CC[C@]43C)[C@@H]12
measured.target: HCT-116 colon
GI50: 1.67 µM

Shifting focus to the compound that follows.
QUERY: Please give the measured GI50 for this compound: O=S(=O)(NC(=S)Nc1ccccc1)c1ccc(N2N=C3c4ccccc4CC3C2c2cccs2)cc1 (centres undefined)
RESULT: 15.1 µM

* * *

Test system: ACHN renal
Assay: NCI tumour cell line growth inhibition, 48 h
metric: GI50

QUERY: GET /values?readout=GI50&system=ACHN renal&item= COc1cccc(/C=C/C(=O)c2ccc(Cl)cc2Cl)c1OC
RESULT: 14.3 µM

QUERY: API: value(readout=GI50, system=ACHN renal) for record N#CC1C(=N)Cc2ccccc2-c2ccccc21 (stereo not drawn)
RESULT: 12.8 µM

QUERY: Record lookup: for ACHN renal, what GI50 belongs to O=C1/C(=C/c2ccccc2)SC(=Nc2ccccc2)N1Nc1ccccc1 ?
RESULT: 23 µM

* * *

System: SN12C renal
Assay: NCI tumour cell line growth inhibition, 48 h
metric: TGI

Here is how some compounds turned out for TGI.
compound: Cc1cccc2sc(NC(=O)c3cc([N+](=O)[O-])ccc3Cl)nc12
metric: TGI
assay.result: 3.34 µM
--
compound: NC(=O)c1csc(C2C=CC(CO)O2)n1 (stereo unspecified)
metric: TGI
assay.result: > 100 µM
--
compound: C=CCN1C(=O)/C(=C/c2ccc(C)cc2)N=C1SC/C=C/C
metric: TGI
assay.result: > 100 µM
--
compound: Nc1nc2ccc([C@@H]3Nc4ccc5[nH]ncc5c4[C@H]4[C@H]5CCC(C5)[C@H]43)cc2s1
metric: TGI
assay.result: 4.12 µM
--
compound: CN1CCN(c2ccc(-c3cnc4c(-c5csc6ccccc56)cnn4c3)cc2)CC1
metric: TGI
assay.result: > 15 µM
--
compound: CCC(=O)OCc1ccc2oc(=O)c(C(=O)Oc3cncc(Cl)c3)cc2c1
metric: TGI
assay.result: > 100 µM
--
compound: OC(c1cccs1)c1cc2ccccc2s1 (stereo unspecified)
metric: TGI
assay.result: > 10 µM
--
compound: [Cl-].[Rh+3].c1ccc(-c2ccnc3c2ccc2c(-c4ccccc4)ccnc23)cc1.c1ccc(-c2ccnc3c2ccc2c(-c4ccccc4)ccnc23)cc1.c1ccc(-c2ccnc3c2ccc2c(-c4ccccc4)ccnc23)cc1
metric: TGI
assay.result: > 100 µM
--
compound: CC1=C(C2=C(C)C(=O)C(=O)c3cc(C)ccc32)c2ccc(C)cc2C(=O)C1=O
metric: TGI
assay.result: 0.314 µM
--
compound: COc1ccc(NC(=O)C(=O)NNC(=O)c2sc(NNC(C)=O)nc2C)c([N+](=O)[O-])c1
metric: TGI
assay.result: > 100 µM

Next item in the queue.
QUERY: Item: CCN1/C(=C/c2ccc3ccccc3[n+]2CC)C=Cc2ccccc21 Test system: SN12C renal Read-out: TGI Value: ?
RESULT: 12.8 µM
